Sourced from PubChem BioAssay (NCI)

- System: UO-31 renal
- testDetails: NCI tumour cell line growth inhibition, 48 h
quantityName: GI50

# smilesEntry, GI50
records = [
    ("CCNC(=O)Oc1ccc(/C(=C(\\C)c2ccc(Cl)cc2)c2ccc(OCCN3CCCCC3)cc2)cc1", "2.05 µM"),
    ("COC(=O)Nc1nc2ccc(Sc3ccc(NC(=O)Nc4cc(C(F)(F)F)ccc4F)cc3)cc2[nH]1", "5.9 µM"),
    ("COc1cc(C(=O)N/N=C/c2cccc([N+](=O)[O-])c2)cc(OC)c1OC", "5.2 µM"),
]

Each of the following entries comes with a recorded value; kindly state GI50 for each.
1. CC(C)n1nc(C#Cc2cccc(NC(=O)c3cccc(C(F)(F)F)c3)c2)c2c(N)ncnc21
2. Cc1ccc(OCCCCCCNCCO)c(C)c1

Ans.
1. 0.601 µM
2. 12.1 µM

----------
- Tested on: HCT-15 colon
- testDetails: NCI tumour cell line growth inhibition, 48 h
Kindly supply the reported TGI values for the records listed here.
Give bare numbers, in µM.

# count of solved cases: 2
# compound, quantityName, measuredResult
rows = [
    ("CN(C)CCNc1nc2ccccc2c2c1C(=O)c1ccccc1-2", "TGI", 1.57),
    ("O=C1/C(=C/c2ccccc2)CN(C(=O)Oc2ccc([N+](=O)[O-])cc2)C/C1=C\\c1ccccc1", "TGI", 5.63),
]

Qu. Given CC(C)[Si]1(C(C)C)OCC2OC(n3cnc4c(N)ncnc43)C(N)C2O[Si](C(C)C)(C(C)C)O1 (stereo unspecified) , state its recorded TGI.
Ans. 23.8

----------
- System: K-562 leukemia
- testDetails: NCI tumour cell line growth inhibition, 48 h
Where a SMILES comes first, the peptide text is derived from it. The star is where a group is joined. Palmitoyl = CCCCCCCCCCCCCCCC(=O)*
Kindly supply the reported GI50 values for the records listed here.

# count of solved cases: 2
# compound, GI50
measured = [
    ("CN(C)c1ccc(Sc2ccc3nc(N)nc(N)c3c2)cc1", "0.142 µM"),
    ("CCOc1cccnc1/C=N/NC(N)=S", "3.72 µM"),
]

Now turn to the next compound.
Qu. Given CCCCCCCCCCCCCCCC(=O)NC(CCCCN)C(=O)NCC(=O)NC(Cc1ccccc1)C(=O)N1CCCC1C(=O)NC(CO)C(=O)NC(Cc1ccc(O)cc1)C(=O)NC(CCCCN)C(=O)NC(CC(C)C)C(=O)NC(CCCN=C(N)N)C(=O)N1CCCC1C(=O)NCC(N)=O (stereo not drawn) (Palmitoyl-KGFPSYKLRPG-NH2; configuration not given here) , state its recorded GI50.
Ans. 22.2 µM

----------
- Test system: DU-145 prostate
- testDetails: NCI tumour cell line growth inhibition, 48 h
quantityName: log10 TGI (log10 of the value in µM)
Quick note: numbers are log10 of TGI, with µM as the unit.

# count of solved cases: 4
# compound, assayedTarget, log10 TGI
rows = [
    ("CN1CC(C(=O)NC2(C)OC3(O)C4CCCN4C(=O)C(Cc4ccccc4)N3C2=O)C=C2c3cccc4[nH]cc(c34)CC21 (centres undefined)", "DU-145 prostate", 1.83),
    ("COc1cc(C(=O)/C=C/c2c(C(F)(F)F)nc3sccn23)cc(OC)c1OC", "DU-145 prostate", 0.46),
    ("CCCCCCCCCCCCNC(=O)[C@H]1CSC(c2ccc(OC)c(F)c2)N1 (some centres undefined)", "DU-145 prostate", 0.39),
    ("CC(C)[Si]1(C(C)C)OCC2OC(n3cnc4c(N)ncnc43)C(N)C2O[Si](C(C)C)(C(C)C)O1 (centres undefined)", "DU-145 prostate", 1.50),
]

Each of the following entries comes with a recorded value; kindly state log10 TGI for each.
1. CC1(C)CC2(C)OC2C2(C1)N=NC(=Nc1ccccc1)O2 (centres undefined)
2. COc1ccc(C=O)cc1Oc1ccc(C[C@H]2c3c(cc(OC)c4c3Oc3cc5c(cc3O4)CCN(C)C5=O)CCN2C)cc1

Ans.
[1.27, 1.40]

----------
- System: MALME-3M melanoma
- testDetails: NCI tumour cell line growth inhibition, 48 h; in the data active means GI50 below about 0.43 µM; inactive means the rest
Answer with one of the outcomes active, inactive

Qu. Test call for this compound, please: CCN(CC)CCOc1ccc(C2=C(c3ccccc3)CCc3cc(OC)ccc32)cc1
Ans. inactive

Qu. Would you kindly repeat that for O=c1c2cc(F)ccc2sc2c(NCCCN3CCCC3)nc3ccccc3c12 ?
Ans. inactive

Qu. Would you kindly repeat that for Cn1c(COC(=O)NCCN2CCOCC2)nc2c(N3CCOCC3)nc(-c3ccccc3)nc21 ?
Ans. inactive

----------
Kindly supply the reported TGI values for the records listed here.
- Tested on: DMS 114 small cell lung
- testDetails: NCI tumour cell line growth inhibition, 48 h
Give bare numbers, in µM.

# compound, TGI / µM
rows = [
    ("CCCCCCCCC(=O)NCCCNCCCNC(=O)CCCCCCCC", 8.79),
]

Now turn to the next compound.
Qu. Given C=C1C(=O)C[C@@]23CCC[C@@]12CC(O)C3 (some centres undefined) , state its recorded TGI.
Ans. 38.3

----------
- System: ACHN renal
- testDetails: NCI tumour cell line growth inhibition, 48 h
Kindly supply the reported GI50 values for the records listed here.

# count of solved cases: 2
# compound, GI50
records = [
    ("COc1ccc(CC2C(=O)NC(C)C(=O)N(C)C3Cc4ccc(cc4)Oc4cc(ccc4O)CC(C(=O)NC(C)C(=O)NC(C)C(=O)N2C)N(C)C3=O)cc1 (centres undefined)", "450 nM"),
    ("CC(C)n1nc(C#Cc2cccc(NC(=O)c3cccc(C(F)(F)F)c3)c2)c2c(N)ncnc21", "1010 nM"),
]

Each of the following entries comes with a recorded value; kindly state GI50 for each.
1. CCCCCCN1C(=O)CN=C1Nc1ccc2cc3ccc(NC4=NCC(=O)N4CCCCCC)cc3nc2c1
2. C[C@H](NC(=O)CCC(F)(F)F)C(=O)N[C@@H]1C(=O)N(CCO)c2ncccc2-c2ccccc21

Ans.
1. 1760 nM
2. > 100000 nM

----------
- System: NCI-H226 lung
- testDetails: NCI tumour cell line growth inhibition, 48 h
Where a SMILES comes first, the peptide text is derived from it. The star is where a group is joined. Palmitoyl = CCCCCCCCCCCCCCCC(=O)*
quantityName: TGI (µM)
Give bare numbers, in µM.

# count of solved cases: 3
# molecule, assayedTarget, quantityName, measuredResult
data = [
    ("CCN(CC)CCOc1ccc(C2=C(c3ccccc3)CCc3cc(OC)ccc32)cc1", "NCI-H226 lung", "TGI", 12.6),
    ("COCCCN1C(=O)C2c3[nH]c4ccccc4c3C3CCC(C(C)(C)C)CC3C2C1=O (configuration not stated)", "NCI-H226 lung", "TGI", 60.6),
    ("C=CC[PH+](c1ccccc1)c1ccccc1.C=CC[PH+](c1ccccc1)c1ccccc1.[Cl][Pt][Cl]", "NCI-H226 lung", "TGI", 33),
]

Each of the following entries comes with a recorded value; kindly state TGI for each.
1. CC(C)n1nc(C#Cc2cccc(NC(=O)c3cccc(C(F)(F)F)c3)c2)c2c(N)ncnc21
2. COc1cc2cc3c4c(cc(OC)c(OC)c4c2cc1OC)CCN3C(=O)OCCBr
3. CC1(C)CC2(C)OC2C2(C1)N=NC(=Nc1ccccc1)O2 (configuration not stated)
4. CC(C)(C)NCCC(O)c1cc(C(F)(F)F)nc2c(C(F)(F)F)cccc12 (configuration not stated)
5. C#Cc1cccc(Nc2ncnc3ccc(-c4cncc(NS(C)(=O)=O)c4)cc23)c1
6. C=C1c2nc3ccccc3n2C=C(c2ccccc2)N1c1ccc(OC)cc1
7. CC(C)[Si]1(C(C)C)OCC2OC(n3cnc4c(N)ncnc43)C(N)C2O[Si](C(C)C)(C(C)C)O1 (configuration not stated)

Ans.
6.35
2.42
29.6
33.4
16.8
35.6
25.8

Each of the following entries comes with a recorded value; kindly state TGI for each.
1. Cn1c(COC(=O)NCCN2CCOCC2)nc2c(N3CCOCC3)nc(-c3ccccc3)nc21
2. CCCCCCCCCCCCCCCC(=O)NC(CCCCN)C(=O)NCC(=O)NC(Cc1ccccc1)C(=O)N1CCCC1C(=O)NC(CO)C(=O)NC(Cc1ccc(O)cc1)C(=O)NC(CCCCN)C(=O)NC(CC(C)C)C(=O)NC(CCCN=C(N)N)C(=O)N1CCCC1C(=O)NCC(N)=O (configuration not stated) (Palmitoyl-KGFPSYKLRPG-NH2; configuration not given here)
3. O=[N+]([O-])O.[NH-]C1CCCCC1[NH-].[NH-]C1CCCCC1[NH-].[NH-]C1CCCCC1[NH-].[OH-].[OH-].[OH-].[Pt+4].[Pt+4].[Pt+4] (configuration not stated)
4. C/C(=C/CC[C@](C)(OC1OC(CO)C(O)C(O)C1O)[C@H]1CC[C@]2(C)[C@@H]1CC[C@@H]1[C@@]3(C)CC[C@H](O)C(C)(C)[C@@H]3C[C@H](O)[C@]12C)CO (some centres not stated)
5. CN(C)CCn1c(=O)c2ccc(NCCNCCO)c3c(=O)c4cc(O)ccc4n(c1=O)c23

Ans.
1: 20.3; 2: 42.5; 3: 27.5; 4: 60.4; 5: 5.71

Qu. Which measured TGI belongs to O=[N+]([O-])c1cccc(-c2ncc(-c3ccc(Cl)cc3Cl)[nH]2)c1 , tested on NCI-H226 lung?
Ans. 21.6
